B1: VH:VL chains; a variant is named by its letters at X, in order (parent)
chain 1: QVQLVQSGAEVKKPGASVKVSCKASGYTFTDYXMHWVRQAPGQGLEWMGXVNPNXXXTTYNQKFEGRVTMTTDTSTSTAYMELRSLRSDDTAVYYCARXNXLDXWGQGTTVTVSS
chain 2: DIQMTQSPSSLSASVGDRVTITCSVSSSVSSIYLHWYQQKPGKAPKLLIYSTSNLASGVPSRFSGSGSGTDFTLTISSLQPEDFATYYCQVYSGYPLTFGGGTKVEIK

variants of: B1; assay: yeast display scFab, FACS + sequencing; conditions: with MET
This is one part of the list. No count for the full screen is at hand.
MEASURE_NAME: antigen binding call

mutant_label=YRRRGVSA val=binds
mutant_label=DAKENAGD val="no binding"
mutant_label=YRTAGSSD val=binds
mutant_label=YKGKGFAA val="no binding"
mutant_label=YRTAGAGD val=binds
mutant_label=YRTAGAAD val=binds
mutant_label=YRAEGYVV val=binds
mutant_label=YRTGGSSV val=binds
mutant_label=DAKENDVF val="no binding"
mutant_label=YRGKGSWS val=binds
mutant_label=SKGKGSAA val=binds
